- System: SW1271 complex spheroids with HUVEC/MSC, growth, % test/control
- Assay summary: Anticancer human tumor SW1271 cell line growth inhibition [AhR];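 also: spheroids exposed to agents for 7 days before readout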
- Experimental setup: curve of first compound; second compound 10 µM
- Description: Multicellular complex tumor spheroid response to aryl hydrocarbon receptor antagonists in combination with a variety of drugs and investigational agents in selected tumor cell lines […] Compounds. […] If the clinical Cmax for an agent had not been determined, the highest concentration tested was 10 microM (Table 1). […]
Mark each entry Yes if its IC50 sits below 800 nM, and No for all others.

Compound	Category
CC1COCCN1c1cc(C2(S(C)(=N)=O)CC2)nc(-c2ccnc3[nH]ccc23)n1 (configuration not stated) + CC(CO)NC(=O)c1cc(-c2ccc(Cl)cc2)nn(-c2cnn(C)c2)c1=O	No
O=C(C=Cn1cnc(-c2cc(C(F)(F)F)cc(C(F)(F)F)c2)n1)NNc1cnccn1 + CC(CO)NC(=O)c1cc(-c2ccc(Cl)cc2)nn(-c2cnn(C)c2)c1=O	Yes
COc1cc(Nc2ncc3c(n2)-c2ccc(Cl)cc2C(c2c(F)cccc2OC)=NC3)ccc1C(=O)O + Cc1ccccc1N=Nc1ccc(NC(=O)c2ccnn2C)c(C)c1	No
CCN(c1cc(-c2ccc(CN3CCOCC3)cc2)cc(C(=O)NCc2c(C)cc(C)[nH]c2=O)c1C)C1CCOCC1 + Cc1cncc(-c2nc(NCCc3c[nH]c4ccccc34)c3ncn(C(C)C)c3n2)c1	Yes
CC1COCCN1c1cc(-c2ccnn2C)c2ccnc(-c3ccn[nH]3)c2n1 (configuration not stated) + Cc1cncc(-c2nc(NCCc3c[nH]c4ccccc34)c3ncn(C(C)C)c3n2)c1	Yes
O=C(C=Cn1cnc(-c2cc(C(F)(F)F)cc(C(F)(F)F)c2)n1)NNc1cnccn1 + Cc1ccccc1N=Nc1ccc(NC(=O)c2ccnn2C)c(C)c1	No
NS(=O)(=O)OCC1CC(n2ccc3c(NC4CCc5ccccc54)ncnc32)CC1O (configuration not stated) + Cc1cncc(-c2nc(NCCc3c[nH]c4ccccc34)c3ncn(C(C)C)c3n2)c1	Yes
Nc1ncn(C2CC(O)C(CO)S2)c(=O)n1 (configuration not stated) + Cc1cncc(-c2nc(NCCc3c[nH]c4ccccc34)c3ncn(C(C)C)c3n2)c1	Yes
O=C(C=Cc1cccc(S(=O)(=O)Nc2ccccc2)c1)NO + Cc1ccccc1N=Nc1ccc(NC(=O)c2ccnn2C)c(C)c1	No
COc1ccc([C@@H](O)c2cc(-c3ncnc4cc(N5CCOCC5)ccc34)c(F)cc2Cl)nn1 + Cc1ccccc1N=Nc1ccc(NC(=O)c2ccnn2C)c(C)c1	No
CC[C@@]1(O)C(=O)OCc2c1cc1n(c2=O)Cc2cc3c(CN(C)C)c(O)ccc3nc2-1 + Cc1cncc(-c2nc(NCCc3c[nH]c4ccccc34)c3ncn(C(C)C)c3n2)c1	Yes
COc1cc(Nc2ncc3c(n2)-c2ccc(Cl)cc2C(c2c(F)cccc2OC)=NC3)ccc1C(=O)O + CC(CO)NC(=O)c1cc(-c2ccc(Cl)cc2)nn(-c2cnn(C)c2)c1=O	No

====

We begin with a simple list: items and their reported viability, T/C.
- Test system: SW1271 complex spheroids with HUVEC/MSC, growth, % test/control
- Assay summary: Anticancer human tumor SW1271 cell line growth inhibition [AhR];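 also: spheroids exposed to agents for 7 days before readout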
- Experimental setup: second compound 3.16 µM; first compound 0.001 µM; stronger effect = lower value
Experimental readout: viability, T/C (%)

Compound	Experimental readout	Unit tag	Value
CC[C@@]1(O)C(=O)OCc2c1cc1n(c2=O)Cc2cc3c(CN(C)C)c(O)ccc3nc2-1 + Cc1ccccc1N=Nc1ccc(NC(=O)c2ccnn2C)c(C)c1	viability, T/C	%	86.4
CC[C@@]1(O)C(=O)OCc2c1cc1n(c2=O)Cc2cc3c(CN(C)C)c(O)ccc3nc2-1 + CC(CO)NC(=O)c1cc(-c2ccc(Cl)cc2)nn(-c2cnn(C)c2)c1=O	viability, T/C	%	85.2
Cn1ncnc1C1c2n[nH]c(=O)c3cc(F)cc(c23)NC1c1ccc(F)cc1 (stereo unspecified) + Cc1ccccc1N=Nc1ccc(NC(=O)c2ccnn2C)c(C)c1	viability, T/C	%	127
Cn1ncnc1C1c2n[nH]c(=O)c3cc(F)cc(c23)NC1c1ccc(F)cc1 (stereo unspecified) + CC(CO)NC(=O)c1cc(-c2ccc(Cl)cc2)nn(-c2cnn(C)c2)c1=O	viability, T/C	%	73
CC[C@@]1(O)C(=O)OCc2c1cc1n(c2=O)Cc2cc3c(CN(C)C)c(O)ccc3nc2-1 + Cc1cncc(-c2nc(NCCc3c[nH]c4ccccc34)c3ncn(C(C)C)c3n2)c1	viability, T/C	%	109
Cn1ncnc1C1c2n[nH]c(=O)c3cc(F)cc(c23)NC1c1ccc(F)cc1 (stereo unspecified) + Cc1cncc(-c2nc(NCCc3c[nH]c4ccccc34)c3ncn(C(C)C)c3n2)c1	viability, T/C	%	105
